Molecular target: T1, Biotinylated Human Siglec-2/CD22 Protein, Fc, Avitag (ACROBiosystems, SI2-H82F8) (human, UniProt P20273 20-687, biotinylated (Avitag))
T1 construct: Bought reagent; also called CD22 antigen; CD22-Fc-biotinylated antigen; not shown: Fc tag of the bought protein; Avitag
Experiment: SPR (Biacore 8K), CD22-Fc-biotin on SA chip, antibody as analyte, 1:1 binding model
Could you please report measured koff for the items listed next?
Please answer using a numeric value trailed by its unit.

Challenge: Requested read-out: koff. Entry: mAb-1 (antibody, human IgG1, kappa, V domains shown, Reconstructed IgG1/kappa antibody, humanized heavy chain with HA22 light chain; also called V2 HC + HA22 LC) VH: EVQLVESGGGLVKPGGSLRLSCAASGFAFSIYDMSWVRQTPEKCLEWVAYISSGGGTTYYPDSVKGRFTISRENAKNSLYLQMNSLKSEDTAMYYCARHSGYGTHWGVLFAYWGQGTMVTVSS VL: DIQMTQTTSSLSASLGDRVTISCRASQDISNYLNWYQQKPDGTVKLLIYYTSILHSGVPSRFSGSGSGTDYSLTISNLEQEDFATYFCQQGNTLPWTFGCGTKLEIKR
Response given: 0.000262 s⁻¹

Challenge: Requested read-out: koff. Entry: mAb-2 (antibody, human IgG1, kappa, V domains shown, Humanized IgG1/kappa antibody; also called V2 HC + V2 LC) VH: EVQLVESGGGLVKPGGSLRLSCAASGFAFSIYDMSWVRQTPEKCLEWVAYISSGGGTTYYPDSVKGRFTISRENAKNSLYLQMNSLKSEDTAMYYCARHSGYGTHWGVLFAYWGQGTMVTVSS VL: DIQMTQSTSTLSASVGDRVTITCRASQDISNYLNWYQQRPDGSVKLLIYYTSILHSGVPSRFSGSGSGTDYTLTISSLQDEDFATYFCQQGNTLPWTFGCGTKVEIKR
Response given: 0.000177 s⁻¹

Challenge: Requested read-out: koff. Entry: mAb-4 (antibody, human IgG1, kappa, V domains shown, Humanized IgG1/kappa antibody; also called V1 HC + V4 LC) VH: EVQLVESGGGLVKPGGSLRLSCAASGFAFSIYDMSWVRQAPGKCLEWVAYISSGGGTTYYPDSVKGRFTISRENAKNSLYLQMNSLKSEDTAMYYCARHSGYGTHWGVLFAYWGQGTMVTVSS VL: DIQMTQSPSTLSASVGDRVTITCRASQDISNYLNWFQQRPGQSPRLLIYYTSILHSGVPSRFSGSGSGTDYTLTISSLQPEDFATYYCQQGNTLPWTFGCGTKVEIKR
Response given: 9.91e-05 s⁻¹

Challenge: Requested read-out: koff. Entry: mAb-3 (antibody, human IgG1, kappa, V domains shown, Humanized IgG1/kappa antibody; also called V1 HC + V2 LC) VH: EVQLVESGGGLVKPGGSLRLSCAASGFAFSIYDMSWVRQAPGKCLEWVAYISSGGGTTYYPDSVKGRFTISRENAKNSLYLQMNSLKSEDTAMYYCARHSGYGTHWGVLFAYWGQGTMVTVSS VL: DIQMTQSTSTLSASVGDRVTITCRASQDISNYLNWYQQRPDGSVKLLIYYTSILHSGVPSRFSGSGSGTDYTLTISSLQDEDFATYFCQQGNTLPWTFGCGTKVEIKR
Response given: 0.000404 s⁻¹

Challenge: Requested read-out: koff. Entry: mAb-6 (antibody, human IgG1, kappa, V domains shown, Humanized IgG1/kappa antibody; also called V4 HC + V4 LC) VH: EVQLVESGGGLVKPGGSLRLSCAASGFAFSIYDMSWIRQAPGKCLEWVAYISSGGGTTYYPGSVKGRFTISRENAKNSLYLQMNSLRAGDTAVYYCARHSGYGTHWGVLFAYWGQGTMVTVSS VL: DIQMTQSPSTLSASVGDRVTITCRASQDISNYLNWFQQRPGQSPRLLIYYTSILHSGVPSRFSGSGSGTDYTLTISSLQPEDFATYYCQQGNTLPWTFGCGTKVEIKR
Response given: 0.00022 s⁻¹

Challenge: Requested read-out: koff. Entry: HA22 mAb (antibody, human IgG1, kappa, V domains shown, also called positive antibody HA22 mAb) VH: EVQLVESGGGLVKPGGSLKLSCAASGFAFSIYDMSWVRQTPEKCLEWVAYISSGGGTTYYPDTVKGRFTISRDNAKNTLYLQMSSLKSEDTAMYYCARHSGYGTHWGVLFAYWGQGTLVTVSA VL: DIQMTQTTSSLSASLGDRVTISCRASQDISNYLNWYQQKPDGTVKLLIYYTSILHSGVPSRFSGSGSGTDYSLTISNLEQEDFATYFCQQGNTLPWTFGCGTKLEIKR
Response given: 8.93e-05 s⁻¹

Challenge: Requested read-out: koff. Entry: mAb-5 (antibody, human IgG1, kappa, V domains shown, Humanized IgG1/kappa antibody; also called V5 HC + V4 LC) VH: EVQLVESGGGLVKPGGSLRLSCAASGFAFSIYDMSWIRQAPGKCLEWVAYISSGGGTTYYPGSVKGRFTISRENAKNSLYLQMNSLRSEDTAVYYCARHSGYGTHWGVLFAYWGQGTMVTVSS VL: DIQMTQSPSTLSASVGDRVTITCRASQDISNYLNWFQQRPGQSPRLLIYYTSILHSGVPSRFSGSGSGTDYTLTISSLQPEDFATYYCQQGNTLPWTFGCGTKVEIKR
Response given: 0.000411 s⁻¹

Entry source: patent US20230365679A1
